# TGI per entry
- Test system: UO-31 renal
- ASSAY NOTES: NCI tumour cell line growth inhibition, 48 h

// below: answered compounds
[[record]]
compound = "CCOP(=O)(OCC)/C(C#N)=C/c1nc[nH]c1C"
test_system = "UO-31 renal"
measured_parameter = "TGI"
observed = "> 100 µM"

[[record]]
compound = "N#Cc1cnc2ccc(NCc3cnc[nH]3)cc2c1Nc1ccc(F)c(Cl)c1"
test_system = "UO-31 renal"
measured_parameter = "TGI"
observed = "> 100 µM"

[[record]]
compound = "COc1cc2ncnc(Nc3cccc(Br)c3)c2cc1OC"
test_system = "UO-31 renal"
measured_parameter = "TGI"
observed = "33.6 µM"

[[record]]
compound = "OC1C2CN3CCN(C2)CC1(c1ccccc1)C3 (stereo not given)"
test_system = "UO-31 renal"
measured_parameter = "TGI"
observed = "> 100 µM"

[[record]]
compound = "COc1cccc(C2CC(C)(O)Oc3cc4c(cc32)OCO4)c1 (stereo not given)"
test_system = "UO-31 renal"
measured_parameter = "TGI"
observed = "72.2 µM"

[[record]]
compound = "O=S(=O)(O)c1cc(O)c(N=NC2S(=O)(=O)OCCOS2(=O)=O)c2ccccc12"
test_system = "UO-31 renal"
measured_parameter = "TGI"
observed = "> 100 µM"

[[record]]
compound = "COc1cc(OC)c(-n2[nH]c(=O)n(C)c2=O)c(OC)c1"
test_system = "UO-31 renal"
measured_parameter = "TGI"
observed = "> 100 µM"

[[record]]
compound = "O=C1O/C(=C(\\Br)c2ccc([N+](=O)[O-])cc2)c2ccccc21"
test_system = "UO-31 renal"
measured_parameter = "TGI"
observed = "> 100 µM"

[[record]]
compound = "O=C(c1ccccc1)c1nc2ccc(Cl)cc2cc1C(Br)Br"
test_system = "UO-31 renal"
measured_parameter = "TGI"
observed = "1.27 µM"

[[record]]
compound = "Cc1c2ccccc2c(/C=N/NC(=O)CSCC(=O)N/N=C/c2c3ccccc3c(C)c3ccccc23)c2ccccc12"
test_system = "UO-31 renal"
measured_parameter = "TGI"
observed = "> 100 µM"


// TGI lookup, key: O=C1/C(=C/c2cc(O)c(O)c(O)c2)Oc2cc(O)cc(OC3OC(CO)C(O)C(O)C3O)c21 (stereo not given)
> 100 µM

// TGI lookup, key: CC(Nc1cccc(Cl)c1)c1ccncc1 (stereo not given)
> 100 µM

// TGI lookup, key: `Nc1nc(N)c2cc(S(=O)(=O)c3cccc(C(F)(F)F)c3)ccc2n1`
> 100 µM

// TGI lookup, key: `COC(=O)c1sc2nc(Nc3ccccc3)c(=Nc3ccccc3)sc2c1C`
> 100 µM

// TGI lookup, key: `Cc1cccc(-c2cc(=O)c3cccnc3[nH]2)c1`
> 100 µM

* * *

# TGI per entry
- Test system: SNB-19 CNS
- ASSAY NOTES: NCI tumour cell line growth inhibition, 48 h

// below: answered compounds
[[record]]
input_smiles = "Cc1ccc(NC(=O)c2ccoc2)cc1-c1ccc(C(=O)NCC2CC2)cc1"
test_system = "SNB-19 CNS"
measured_parameter = "TGI"
observed = "> 25 µM"

[[record]]
input_smiles = "CCCN1CCC(Oc2cc(Nc3nc(Nc4cccc(F)c4C(N)=O)c4cc[nH]c4n3)c(OC)cc2Cl)CC1"
test_system = "SNB-19 CNS"
measured_parameter = "TGI"
observed = "8.33 µM"

[[record]]
input_smiles = "CCOc1ccc2c(c1)[n+]([O-])c(-c1ccccc1)c(N)[n+]2[O-]"
test_system = "SNB-19 CNS"
measured_parameter = "TGI"
observed = "> 100 µM"


// TGI lookup, key: `CC(=O)Oc1ccc2c(c1)O/C(=C\c1ccc(N(C)C)cc1)C2=O`
> 100 µM

// TGI lookup, key: `CN(C(=O)Cc1cc(Cl)c(Cl)cc1NC(=O)CCCN)[C@H]1CCCC[C@@H]1N1CCCC1`
45.4 µM

// TGI lookup, key: `CCN(CC)C1=Nc2ccccc2-n2ccnc2C1`
> 100 µM

* * *

- Tested on: LOX IMVI melanoma
- ASSAY NOTES: NCI tumour cell line growth inhibition, 48 h
MEASURED PARAMETER: TGI

// below: answered compounds
[[record]]
input_smiles = "C=CC(=O)N1CCN([C@@H](CC2CC2)c2ccc([C@H](C)Nc3ncc4c(n3)N(CC)C(=O)OC4)cc2)CC1"
observed = "26.6 µM"

[[record]]
input_smiles = "COc1cc2c(c3nc4ccccc4nc13)-c1ccc(SC)c(=O)cc1[C@@H](NC(C)=O)CC2"
observed = "> 100 µM"


Please turn your attention to the following entry.
// TGI lookup, key: `Nc1nc(N)c2cc(S(=O)(=O)c3cccc(C(F)(F)F)c3)ccc2n1`
> 100 µM

* * *

GI50 data for MDA-MB-435 follow.

// below: answered molecules
[[record]]
molecule = "COc1ccc(-c2nn3ncccc3c2-c2ccnc(Nc3ccc(F)c(F)c3)n2)cc1"
observed = "7.39 µM"

[[record]]
molecule = "CCOC(=O)c1sc2nc(=S)[nH]c(NC(N)=S)c2c1C"
observed = "30.5 µM"

[[record]]
molecule = "C=CCn1c(SCC(=O)Nc2ccc(C(=O)/C=C/c3cc(OC)c(OC)c(OC)c3)cc2)nnc1-c1cc(OC)c(OC)c(OC)c1"
observed = "2.72 µM"


Please turn your attention to the following entry.
Item: Cc1cc[c]([Sb]2[O]C(CO)C(C(O)C(O)C(=O)O)[O]2)cc1 (centres undefined) Test system: MDA-MB-435 Read-out: GI50 Value: ?
81.7 µM

* * *

# TGI per entry
- Test system: MDA-MB-231 breast
- ASSAY NOTES: NCI tumour cell line growth inhibition, 48 h

[[record]]
input_smiles = "O=C(Nc1ccc(Nc2ccc3c(c2)C(=O)c2ccccc2C3=O)c2c1C(=O)c1ccccc1C2=O)c1ccccc1"
observed = "> 100 µM"

[[record]]
input_smiles = "Cc1ccc(NC(=O)c2ccoc2)cc1-c1ccc(C(=O)NCC2CC2)cc1"
observed = "> 25 µM"


Please turn your attention to the following entry.
Item: `N#Cc1nc2cc(Cl)c(Cl)cc2nc1-c1ccc(Cl)cc1` Test system: MDA-MB-231 breast Read-out: TGI Value: ?
> 73.4 µM

* * *

- Test system: CCRF-CEM leukemia
- ASSAY NOTES: NCI tumour cell line growth inhibition, 48 h; in the data active means GI50 below about 0.43 µM; inactive means the rest
// one of 1 (active), -1 (inactive), no free text

Outcome logged for `CN1CCN(CCCOC(=O)c2c3c(n4ccccc24)C(=O)c2ncccc2C3=O)CC1` in this assay:
1

Outcome logged for CCN(CC)CCN1C(=O)C2C3C(C)=CC(OC(C)=O)(CC3C)C2C1=O (centres undefined) in this assay:
-1

Outcome logged for `CN1CCN(c2ccc3nc(-c4[nH]ncc4Nc4ncnc5[nH]ccc45)[nH]c3c2)CC1` in this assay:
1

Outcome logged for `N#CSc1c[nH]c2ccc(/C=C/C(=O)/C=C(O)/C=C/c3ccc4[nH]cc(SC#N)c4c3)cc12` in this assay:
-1

* * *

- Tested on: HT29 colon
- ASSAY NOTES: NCI tumour cell line growth inhibition, 48 h
MEASURED PARAMETER: TGI

// below: answered compounds
[[record]]
compound = "Cc1cccc(-c2cc(=O)c3cccnc3[nH]2)c1"
test_system = "HT29 colon"
observed = "2.93 µM"

[[record]]
compound = "CC(C)NC1CCCCC2c3ccccc3C12O (stereo unspecified)"
test_system = "HT29 colon"
observed = "> 100 µM"


Please turn your attention to the following entry.
// TGI lookup, key: `[Cu].c1ccc2c(c1)C1=NC2=NC2=NC(=NC3=NC(=NC4=NC(=N1)c1ccccc14)c1ccccc13)c1ccccc12`
> 100 µM

* * *

# TGI per entry
- Test system: PC-3 prostate
- ASSAY NOTES: NCI tumour cell line growth inhibition, 48 h

[[record]]
molecule = "O=C1O/C(=C(\\Br)c2ccc([N+](=O)[O-])cc2)c2ccccc21"
observed = "> 100 µM"

[[record]]
molecule = "CCO/C(O)=c1/s/c(=C2/SC(=S)N(c3ccc(C)cc3)C2=O)n(-c2ccccc2)c1=N"
observed = "> 100 µM"

[[record]]
molecule = "CC(C)CC(NC(=O)C(O)C(N)Cc1ccccc1)C(=O)O (centres undefined)"
observed = "> 100 µM"

[[record]]
molecule = "COc1cc(OC)c(-n2[nH]c(=O)n(C)c2=O)c(OC)c1"
observed = "> 100 µM"

[[record]]
molecule = "Cc1c2ccccc2c(/C=N/NC(=O)CSCC(=O)N/N=C/c2c3ccccc3c(C)c3ccccc23)c2ccccc12"
observed = "> 67.5 µM"

[[record]]
molecule = "C[C@]12CC[C@H]3[C@@H](CC=C4C[C@@H](N5CCCC5)CC[C@@]43C)[C@@H]1C/C(=C\\c1ccc([N+](=O)[O-])cc1)[C@@H]2O"
observed = "88 µM"

[[record]]
molecule = "CC(=O)Oc1ccc2c(c1)O/C(=C\\c1ccc(N(C)C)cc1)C2=O"
observed = "> 100 µM"

[[record]]
molecule = "Clc1ccc2c(NC3CCC(NC4CCCCC4)CC3)ccnc2c1 (centres undefined)"
observed = "43.2 µM"

[[record]]
molecule = "Clc1cccc(-c2cc(-c3ccc4c(c3)OCCO4)[nH]n2)c1"
observed = "45.8 µM"

[[record]]
molecule = "O=S(=O)(O)c1cc(O)c(N=NC2S(=O)(=O)OCCOS2(=O)=O)c2ccccc12"
observed = "> 100 µM"


Item: COc1cccc(C2CC(C)(O)Oc3cc4c(cc32)OCO4)c1 (centres undefined) Test system: PC-3 prostate Read-out: TGI Value: ?
> 100 µM

Item: `O=C1C(NS(=O)(=O)c2ccccc2)=C(n2ccnc2)C(=O)c2ccccc21` Test system: PC-3 prostate Read-out: TGI Value: ?
> 100 µM

Item: `C[C@]12C(=O)OC[C@H](c3ccccc3)N1C(=O)N(Cc1ccccc1)[C@@H]2CO` Test system: PC-3 prostate Read-out: TGI Value: ?
> 100 µM

Item: `O=[N+]([O-])C(/C(Cl)=C(/Cl)N1CCOCC1)=C1\Nc2ccccc2O1` Test system: PC-3 prostate Read-out: TGI Value: ?
> 100 µM
